Origin of measurements: patent US20250019450A1

- TARGET SYSTEM: T1, IL-12 receptor endogenously expressed on THP-1 cells (UniProt P42701 24-662; Q99665 24-862)
- T1 construct: whole, on cells
- T1 sequence (Q99665 24-862, chain 2 of 2, other chains not shown): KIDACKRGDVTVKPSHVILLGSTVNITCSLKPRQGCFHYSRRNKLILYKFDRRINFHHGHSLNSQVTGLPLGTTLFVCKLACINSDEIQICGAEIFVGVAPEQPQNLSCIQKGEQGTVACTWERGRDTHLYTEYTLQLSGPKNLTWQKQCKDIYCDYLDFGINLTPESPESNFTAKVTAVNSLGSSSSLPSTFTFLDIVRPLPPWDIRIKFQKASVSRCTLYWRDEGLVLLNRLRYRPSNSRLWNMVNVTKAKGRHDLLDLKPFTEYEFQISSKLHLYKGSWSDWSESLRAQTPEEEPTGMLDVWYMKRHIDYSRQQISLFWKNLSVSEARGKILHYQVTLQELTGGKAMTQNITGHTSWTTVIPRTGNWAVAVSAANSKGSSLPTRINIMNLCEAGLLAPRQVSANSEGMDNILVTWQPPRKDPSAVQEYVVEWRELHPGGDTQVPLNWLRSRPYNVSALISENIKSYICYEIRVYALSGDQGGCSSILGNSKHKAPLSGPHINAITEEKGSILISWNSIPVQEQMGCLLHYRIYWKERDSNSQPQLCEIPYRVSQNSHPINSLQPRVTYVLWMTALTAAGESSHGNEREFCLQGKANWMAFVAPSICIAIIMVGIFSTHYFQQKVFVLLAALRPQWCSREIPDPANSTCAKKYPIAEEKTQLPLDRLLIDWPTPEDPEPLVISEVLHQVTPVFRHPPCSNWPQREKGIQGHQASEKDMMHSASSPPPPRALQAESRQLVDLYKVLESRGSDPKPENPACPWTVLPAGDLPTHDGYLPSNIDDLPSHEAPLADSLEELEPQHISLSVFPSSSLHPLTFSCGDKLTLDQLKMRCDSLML
- PROTOCOL TEXT: FACS, hybridoma supernatant, THP-1
PROPERTY: Fold over buffer (fold)
Report the value in fold with no unit label.

Query: Fold over buffer; subject: 85802_10K12 (antibody, V domains shown, also called 85802_10K12A) VH: QVTLRESGPALVKPTQTLTLTCTFSGFSLSTSGMCVSWIRQPPGKALEWLALIYWDDDKYYSTSLKTRLTISKDTSKNQVVLTMTNMDPVDTATYYCARMRRGIEAFDIWGQGTMVTVFS VL: QSVLTQPPSVSGAPGQRVTISCTGSSSNIGAGYDVHWYQQLPGTAPKLLIFGYSNRPSGVPVRFSGSKSGTSASLAITGLLAEDEADFYCQSFDISLTGWVFGGGTKLTVL
27
